# System: NOMO1
# ASSAY METHOD TEXT: cell viability relative to DMSO control; higher = less cytotoxic
# SETTINGS: RPMI 5 mM glucose + 10% dialyzed FBS; 48 h; 0.19 µM
Each entry below carries its recorded cell viability.
Please reply with the bare figure in % and do not write the unit itself.

Example molecules with recorded cell viability:
| STRUCTURE SMILES STRING | cell viability [%] |
| --- | --- |
| CCc1nc(C(N)=O)c(Nc2ccc(N3CCC(N4CCN(C)CC4)CC3)c(OC)c2)nc1NC1CCOCC1 | 99.9 |
| CCNC(=O)c1noc(-c2cc(C(C)C)c(O)cc2O)c1-c1ccc(CN2CCOCC2)cc1 | 18.9 |
| CC(C)(OCc1nn(Cc2ccccc2)c2ccccc12)C(=O)O | 106 |
| CN(C)c1ccccc1CN1CCCN(Cc2ccccc2N(C)C)C1c1ccncc1 | 99.6 |
| COC1=CC=CC(=C1/C2=N/CC3=C(N=C(NC4=CC(=C(C=C4)C(O)=O)OC)N=C3)C5=CC=C(Cl)C=C25)F | 51.9 |
| COc1ccc2c(c1)CC[C@@H](CN(C)CC(=O)O)[C@H]2c1ccccc1 | 130 |

# ---- query molecule ----
Recorded cell viability of O=C(O)CCc1ccc(NCc2cccc(Oc3ccccc3)c2)cc1 , please.
105

###

# System: P12-Ichikawa
# ASSAY METHOD TEXT: AUC of viability dose-response curve (% viability x log10 dose units); higher = less sensitive
# SETTINGS: RPMI 5 mM glucose + 10% FBS; 48 h
PARAMETER: AUC of viability dose-response curve
Could you respond with only the numeric value?

Example compounds with recorded AUC of viability dose-response curve:
| STRUCTURE SMILES STRING | AUC of viability dose-response curve |
| --- | --- |
| CN1CCC(=C2c3ccccc3CCc3sccc32)CC1 | 471 |
| CC[P](CC)(CC)=[Au][S][C@@H]1O[C@H](COC(C)=O)[C@@H](OC(C)=O)[C@H](OC(C)=O)[C@H]1OC(C)=O | 339 |
| COc1cc([C@@H]2c3cc4c(cc3[C@H](O)[C@H]3COC(=O)[C@H]23)OCO4)cc(OC)c1OC | 70.5 |
| CC(C)(OCc1nn(Cc2ccccc2)c2ccccc12)C(=O)O | 459 |

Give AUC of viability dose-response curve (P12-Ichikawa) of the following compound: C=C1C(=O)O[C@@H]2[C@H]3O[C@]3(C)CC/C=C(\C)CC[C@@H]12
358

###

Each entry below carries its recorded cell viability.
# Tested on: SEM cells
# ASSAY METHOD TEXT: cell viability relative to DMSO control; higher = less cytotoxic
# SETTINGS: RPMI 5 mM glucose + 10% dialyzed FBS; 48 h; 0.569 µM
Please reply with the bare figure in % and do not write the unit itself.

Recorded cell viability of CCC[S+](=O)([O-])Nc1ccc(F)c(C(=O)c2c[nH]c3ncc(-c4ccc(Cl)cc4)cc23)c1F , please.
128

Another compound: Cc1ccccc1C(C(=O)NC1CCCC1)N(C(=O)Cn1cnc2ccccc21)c1cccc(F)c1 (stereo not drawn)
120

Another compound: COc1cc([S+](C)(=O)[O-])ccc1Nc1nc2ccc(-c3ccc(NC(=O)[C@H](C)c4ccc(F)cc4)cc3)cn2n1
98.1

Another compound: CC(=O)O/N=C1/C(=C2\C(=O)Nc3cc(Br)ccc32)Nc2ccccc21
84.6

Another compound: C[C@@H](Oc1ccc2[nH]nc(/C=C/c3cnn(CCO)c3)c2c1)c1c(Cl)cncc1Cl
17.5

Another compound: Cc1nc(N)sc1-c1ccnc(Nc2ccc(N3CCOCC3)cc2)n1
81

Another compound: C=C1C(=O)O[C@@H]2[C@H]3O[C@]3(C)CC/C=C(\C)CC[C@@H]12
95.9

Another compound: CN1\C(=C(O)/C2=C(C=C(Cl)S2)[S+]1([O-])=O)C(=O)NC3=NC=CC=C3
104

Reference for the values: the supplement of paper PMC11451515
